Species on record: Rattus norvegicus
ASSAY PROCEDURE: Open TG-GATES - Regimen: Single
Assay type: toxicity, organism-based, Sprague-Dawley
Parameters: regimen Single, gender Male, age 6 weeks
EXPERIMENTAL CONDITIONS: in vivo, po, 0 mg/kg, 24 h, tissue Plasma, route gavage, dose level Control
ENDPOINT: gamma-GTP (IU/L)
Response body: numeric value in IU/L, unit text excluded.

Exercise: Answer with the recorded gamma-GTP for the compound listed here: Cc1cnc(NC(=O)C2=C(O)c3ccccc3S(=O)(=O)N2C)s1 [MELOXICAM]
Key: 1

Exercise: Retrieve gamma-GTP measured for O=C1CN(/N=C/c2ccc(-c3ccc([N+](=O)[O-])cc3)o2)C(O)=N1 [DANTROLENE] and print it.
Key: 1.8

Exercise: Give reported gamma-GTP value for COc1ccc(O)c(C(C)(C)C)c1.COc1ccc(O)cc1C(C)(C)C [BUTYLATED HYDROXYANISOLE]
Key: 1

Exercise: Determine from records and report gamma-GTP for S=C=Nc1cccc2ccccc12 [1-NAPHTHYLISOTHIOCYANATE]
Key: 1.2

Exercise: Identify measured gamma-GTP associated with C=CCO [ALLYL ALCOHOL]
Key: 0.8

Exercise: Complete the entry with gamma-GTP for CNCCC(Oc1ccc(C(F)(F)F)cc1)c1ccccc1.Cl (configuration not stated) [FLUOXETINE HYDROCHLORIDE]
Key: 1

Exercise: Answer with the recorded gamma-GTP of Cc1cccc(Nc2cc(Cl)nc(SCC(=O)O)n2)c1C [PIRINIXIC ACID] only.
Key: 1.2

Exercise: Specify measured gamma-GTP for CS(=O)(=O)Nc1ccc([N+](=O)[O-])cc1Oc1ccccc1 [NIMESULIDE] .
Key: 1.8

Exercise: Please give the documented gamma-GTP of Cn1cnc([N+](=O)[O-])c1Sc1ncnc2nc[nH]c12 [AZATHIOPRINE]
Key: 1

Exercise: Give gamma-GTP for the following compound: O=C1NC(=O)C(c2ccccc2)(c2ccccc2)N1 [PHENYTOIN]
Key: 1

Exercise: Provide measured gamma-GTP value, entry: COc1ccc(Cl)cc1C(=O)NCCc1ccc(S(=O)(=O)NC(=O)NC2CCCCC2)cc1 [GLYBURIDE]
Key: 1.4

Exercise: Provide only the value of recorded gamma-GTP for O=P1(N(CCCl)CCCl)NCCCO1 (configuration not stated) [CYCLOPHOSPHAMIDE ANHYDROUS]
Key: 1.2
